Values were extracted from patent US8017602B2.

Molecular target: recombinant human α1D receptor (Homo sapiens)
Construct: expressed in transfected cells; host or cells: HEK293
Sequence (P25100 1-572): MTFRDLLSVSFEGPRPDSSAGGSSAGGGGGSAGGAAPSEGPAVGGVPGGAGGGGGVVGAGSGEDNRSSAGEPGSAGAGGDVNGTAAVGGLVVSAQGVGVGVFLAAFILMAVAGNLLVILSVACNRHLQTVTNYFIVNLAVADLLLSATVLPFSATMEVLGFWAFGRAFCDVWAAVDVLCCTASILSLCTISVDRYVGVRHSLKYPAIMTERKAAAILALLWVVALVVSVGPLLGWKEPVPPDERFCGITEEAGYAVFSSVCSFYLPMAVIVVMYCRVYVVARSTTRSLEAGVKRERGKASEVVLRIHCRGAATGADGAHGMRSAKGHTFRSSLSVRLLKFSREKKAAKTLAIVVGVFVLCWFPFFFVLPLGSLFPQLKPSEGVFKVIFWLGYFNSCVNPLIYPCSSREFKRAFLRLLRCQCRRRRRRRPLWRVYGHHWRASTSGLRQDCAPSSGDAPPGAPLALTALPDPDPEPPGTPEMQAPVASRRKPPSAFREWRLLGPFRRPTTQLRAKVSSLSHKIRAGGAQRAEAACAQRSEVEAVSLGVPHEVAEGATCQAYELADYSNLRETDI
Experiment: Adrenergic α1D selectivity binding assay ([3H]-prazosin)
Settings: inhibition of [3H]-prazosin binding, HEK293 membranes, read-out: α1 bind pIC50 (converted)
Where a name gives a salt, the structure may show the parent alone.
Readout Type: IC50 (µM)

Compound	Measurement Target	IC50, µM
Cn1cc(-c2cccc(CCOCCC(=O)N(CCNCCc3ccc(O)c4c3OCC(=O)N4)C3CCCCC3)c2F)cn1 [Example 16, Trifluoroacetic Acid Salt]	recombinant human α1D receptor (Homo sapiens)	0.501
CC(C)n1cc(-c2cccc(CCOCCC(=O)N(CCNCCc3ccc(O)c4c3OCC(=O)N4)C3CCCC3)c2)cn1 [Example 22, Trifluoroacetic Acid Salt]	recombinant human α1D receptor (Homo sapiens)	0.794

[a] Cn1nnc(-c2cccc(CCOCCC(=O)N(CCNCCc3ccc(O)c4c3OCC(=O)N4)C3CCCCC3)c2)n1 [Example 07, Trifluoroacetic Acid Salt]
[b] Cn1cc(-c2cccc(CCOCCC(=O)N(CCNCCc3ccc(O)c4c3OCC(=O)N4)C3CCCCC3)c2)nn1 [Example 05, Trifluoroacetic Acid Salt]
## Task Lab note: check whether a or b shows the higher recorded IC50. Field: selected label. Fill in the label of the entry you choose.
## Result b

[1] Cn1cc(-c2cccc(CCOCCC(=O)N(CCNCCc3ccc(O)c4c3OCC(=O)N4)C3CCCCC3)c2)cn1
[2] Cc1nc(-c2cccc(CCOCCC(=O)N(CCNCCc3ccc(O)c4c3OCC(=O)N4)C3CCCCC3)c2)cn1C [Example 35, Trifluoroacetic Acid Salt]
[3] O=C1COc2c(CCNCCN(C(=O)CCOCCc3cccc(-c4ncon4)c3)C3CCCCC3)ccc(O)c2N1 [Example 11, Trifluoroacetic Acid Salt]
[4] Cn1nnnc1-c1cccc(CCOCCC(=O)N(CCNCCc2ccc(O)c3c2OCC(=O)N3)C2CCCCC2)c1 [Example 08, Trifluoroacetic Acid Salt]
## Task Hello, I need these entries ordered by IC50, highest reading first. Thanks! Reply format: the labels, ordered as requested.
## Result 4, 2, 1, 3

[I] CCCC[C@@H](C)N(CCNCCc1ccc(O)c2c1OCC(=O)N2)C(=O)CCOCCc1cccc(-c2cnn(C)c2)c1 [Example 30, Trifluoroacetic Acid Salt]
[II] Cn1ccnc1-c1cccc(CCOCCC(=O)N(CCNCCc2ccc(O)c3c2OCC(=O)N3)C2CCCCC2)c1
## Task Identify the entry with the smaller IC50: I or II . Field: selected label. Fill in the label of the entry you choose.
## Result I

[I] CCC[C@@H](C)N(CCNCCc1ccc(O)c2c1OCC(=O)N2)C(=O)CCOCCc1cccc(-c2cnn(C(C)C)c2)c1 [Example 21, Trifluoroacetic Acid Salt]
[II] Cn1nccc1-c1cccc(CCOCCC(=O)N(CCNCCc2ccc(O)c3c2OCC(=O)N3)C2CCCCC2)c1 [Example 03, Trifluoroacetic Acid Salt]
## Task Identify the entry with the smaller IC50: I or II . Field: selected label. Fill in the label of the entry you choose.
## Result I
